Entry source: paper PMC8599534

- targetSystem: Cav3.1 low voltage-gated Ca^2+ channel (Homo sapiens, UniProt O43497)
- Sequence (O43497 whole entry): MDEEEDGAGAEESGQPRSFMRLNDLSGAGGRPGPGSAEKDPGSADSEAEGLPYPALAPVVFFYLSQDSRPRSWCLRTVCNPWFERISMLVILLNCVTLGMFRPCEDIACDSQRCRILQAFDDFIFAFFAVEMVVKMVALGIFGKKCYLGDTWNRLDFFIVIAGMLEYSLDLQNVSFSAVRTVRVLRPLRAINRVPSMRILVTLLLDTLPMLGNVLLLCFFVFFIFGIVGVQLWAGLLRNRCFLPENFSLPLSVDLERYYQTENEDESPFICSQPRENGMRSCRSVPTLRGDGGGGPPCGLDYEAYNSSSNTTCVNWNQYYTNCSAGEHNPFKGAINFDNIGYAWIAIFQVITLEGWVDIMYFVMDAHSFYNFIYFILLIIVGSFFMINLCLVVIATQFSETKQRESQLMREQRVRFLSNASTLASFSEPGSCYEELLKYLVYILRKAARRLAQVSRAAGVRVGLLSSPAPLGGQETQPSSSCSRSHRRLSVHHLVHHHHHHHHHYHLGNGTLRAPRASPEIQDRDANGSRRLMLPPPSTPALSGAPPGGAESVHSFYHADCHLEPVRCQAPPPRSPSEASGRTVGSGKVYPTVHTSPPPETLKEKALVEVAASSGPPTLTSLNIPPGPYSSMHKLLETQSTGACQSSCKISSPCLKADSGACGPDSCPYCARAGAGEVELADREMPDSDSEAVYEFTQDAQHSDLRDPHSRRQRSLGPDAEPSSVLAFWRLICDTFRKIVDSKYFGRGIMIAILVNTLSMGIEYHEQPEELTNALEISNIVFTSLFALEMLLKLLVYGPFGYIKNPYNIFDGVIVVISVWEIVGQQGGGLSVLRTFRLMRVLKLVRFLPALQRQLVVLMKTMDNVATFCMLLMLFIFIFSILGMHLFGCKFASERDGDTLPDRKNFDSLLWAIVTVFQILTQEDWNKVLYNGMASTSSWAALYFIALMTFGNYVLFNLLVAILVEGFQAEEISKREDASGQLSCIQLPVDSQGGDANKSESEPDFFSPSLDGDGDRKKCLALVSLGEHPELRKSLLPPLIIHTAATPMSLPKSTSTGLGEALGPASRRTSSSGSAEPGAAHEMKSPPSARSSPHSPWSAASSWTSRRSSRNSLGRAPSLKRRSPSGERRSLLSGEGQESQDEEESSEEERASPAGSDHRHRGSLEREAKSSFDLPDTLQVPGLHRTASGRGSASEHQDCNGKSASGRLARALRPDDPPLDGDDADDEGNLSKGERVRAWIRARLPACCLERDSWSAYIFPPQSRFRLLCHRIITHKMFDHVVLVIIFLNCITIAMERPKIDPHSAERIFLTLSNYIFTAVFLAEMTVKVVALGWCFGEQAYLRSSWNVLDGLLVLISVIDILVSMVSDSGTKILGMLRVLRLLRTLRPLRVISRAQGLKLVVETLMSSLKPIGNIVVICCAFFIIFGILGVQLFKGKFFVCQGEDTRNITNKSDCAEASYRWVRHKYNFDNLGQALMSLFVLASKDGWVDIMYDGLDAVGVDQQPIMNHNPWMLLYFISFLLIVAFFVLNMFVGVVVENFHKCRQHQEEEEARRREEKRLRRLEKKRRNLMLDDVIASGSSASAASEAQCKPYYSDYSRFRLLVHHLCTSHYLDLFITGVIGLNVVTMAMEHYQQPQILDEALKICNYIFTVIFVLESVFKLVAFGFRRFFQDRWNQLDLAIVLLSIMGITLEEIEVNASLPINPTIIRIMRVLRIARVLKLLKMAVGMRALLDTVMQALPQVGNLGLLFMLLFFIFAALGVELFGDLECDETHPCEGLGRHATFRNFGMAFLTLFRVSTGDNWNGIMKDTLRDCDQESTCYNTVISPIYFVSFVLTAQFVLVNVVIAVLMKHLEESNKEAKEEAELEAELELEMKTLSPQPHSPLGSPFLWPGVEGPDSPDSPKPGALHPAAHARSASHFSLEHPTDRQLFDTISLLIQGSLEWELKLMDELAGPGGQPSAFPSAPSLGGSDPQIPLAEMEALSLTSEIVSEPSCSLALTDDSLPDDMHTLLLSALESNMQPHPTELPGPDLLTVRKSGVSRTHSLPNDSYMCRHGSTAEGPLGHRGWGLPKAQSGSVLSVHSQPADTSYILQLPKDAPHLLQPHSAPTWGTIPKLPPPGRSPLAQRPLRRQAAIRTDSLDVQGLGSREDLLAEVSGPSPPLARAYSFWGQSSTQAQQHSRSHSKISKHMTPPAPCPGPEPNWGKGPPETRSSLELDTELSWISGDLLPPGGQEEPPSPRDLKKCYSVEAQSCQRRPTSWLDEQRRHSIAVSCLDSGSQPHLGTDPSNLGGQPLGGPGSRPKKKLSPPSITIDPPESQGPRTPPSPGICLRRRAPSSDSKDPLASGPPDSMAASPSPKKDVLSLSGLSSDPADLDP
- measurementProtocol: electrophysiology: peak-current inhibition in HEK […] cells expressing human Cav3.[…]
recordedMetric: pIC50
Kindly note that pIC50 refers to -log10 of the concentration in mol/L and answer with the value alone.

Q: Notebook: pull reported pIC50 for Cav3.1 low voltage-gated Ca^2+ channel (Homo sapiens, UniProt O43497), entry CC(C)=CCc1c([C@@H]2CC(=O)c3c(O)cc(O)c(CC=C(C)C)c3O2)cc2c(c1O)OC(C)(C)C=C2 [compound 2]
Ans: 5.46
